biological target: trehalose phosphorylase (Thermoanaerobacter brockii); construct: cells collected from the culture were disrupted by ultrasonication and then, the supernatant was collected; made in house; host or cells: Thermoanaerobium brockii ATCC 35047 (natural producer, not recombinant); purified by DEAE, butyl and gel filtration chromatography; experiment: Transglucosylation to polyalcohols by trehalose phosphorylase (GC analysis); type: biochemical, Thermoanaerobium brockii; set-up: key: +++: the area of 60% or higher; ++: 30% or higher but less than 60%; +: 0% or higher but less than 30%; −: Transglucosylation was not detected; settings: 1% (w/v) polyalcohol as acceptor, 1.4% (w/v) β-G1P, one unit/ml enzyme, pH 6.0, 50° C., 24 hours; peak area of transferred product to total peak area
Sequence (Q8L164 whole entry): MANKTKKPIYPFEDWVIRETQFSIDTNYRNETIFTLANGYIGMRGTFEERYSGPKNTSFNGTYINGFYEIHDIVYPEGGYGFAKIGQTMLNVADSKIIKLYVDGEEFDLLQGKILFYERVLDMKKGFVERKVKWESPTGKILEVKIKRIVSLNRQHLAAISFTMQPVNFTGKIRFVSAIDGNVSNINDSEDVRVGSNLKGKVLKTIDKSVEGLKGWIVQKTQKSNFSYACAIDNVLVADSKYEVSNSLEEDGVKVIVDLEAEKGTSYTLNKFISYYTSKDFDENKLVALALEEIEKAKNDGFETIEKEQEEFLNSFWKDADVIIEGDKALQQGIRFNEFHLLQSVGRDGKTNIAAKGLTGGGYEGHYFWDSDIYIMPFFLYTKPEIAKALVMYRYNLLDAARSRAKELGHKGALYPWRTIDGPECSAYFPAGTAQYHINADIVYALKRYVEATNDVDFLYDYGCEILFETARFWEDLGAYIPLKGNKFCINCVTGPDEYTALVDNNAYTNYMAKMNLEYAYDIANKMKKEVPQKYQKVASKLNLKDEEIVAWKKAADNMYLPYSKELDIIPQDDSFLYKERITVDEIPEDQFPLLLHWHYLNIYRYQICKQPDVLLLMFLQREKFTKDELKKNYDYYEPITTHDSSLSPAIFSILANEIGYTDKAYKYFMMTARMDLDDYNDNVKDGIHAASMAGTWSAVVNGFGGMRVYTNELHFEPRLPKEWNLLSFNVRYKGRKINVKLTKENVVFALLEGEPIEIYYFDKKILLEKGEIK
observable: Transfer of a glucosyl residue (Transglucosylation)

> print(dat)
                             line.notation  result
1  OC[C@@H](O)[C@@H](O)[C@H](O)[C@@H](O)CO      −*

Reference source: patent US20070154996A1
